The origin of these recorded values is paper PMC4535766.

Test system: T. b. rhodesiense strain STIB 900, trypomastigotes
Assay method text: In vitro activity against T. b. rhodesiense, serial drug dilution assay
Test parameters: Trypanosoma brucei, read-out: IC50 T. b. rhod.
Threshold check on IC50: strictly below 30 µM is T; on or above 30 µM is F.

>>> df
                               entry_smiles  class_name
0           Nc1ccc(S(=O)(=O)c2ccc(N)cc2)cc1           F
1       CCS(=O)(=O)CCn1c([N+](=O)[O-])cnc1C           T
2  CC(C)CN(C[C@@H](O)[C@H](Cc1ccccc1)NC(=O)O[C@H]1CO[C@H]2OCC[C@H]21)S(=O)(=O)c1ccc(N)cc1           F
3      CN1CCC(=C2c3ccccc3CC(=O)c3sccc32)CC1           T
